I'd appreciate it if you could supply pIC50 values for the items below.
# system_under_test: Angiotensin II-Receptor (Rattus norvegicus, UniProt P25095)
# Sequence (P25095 1-359): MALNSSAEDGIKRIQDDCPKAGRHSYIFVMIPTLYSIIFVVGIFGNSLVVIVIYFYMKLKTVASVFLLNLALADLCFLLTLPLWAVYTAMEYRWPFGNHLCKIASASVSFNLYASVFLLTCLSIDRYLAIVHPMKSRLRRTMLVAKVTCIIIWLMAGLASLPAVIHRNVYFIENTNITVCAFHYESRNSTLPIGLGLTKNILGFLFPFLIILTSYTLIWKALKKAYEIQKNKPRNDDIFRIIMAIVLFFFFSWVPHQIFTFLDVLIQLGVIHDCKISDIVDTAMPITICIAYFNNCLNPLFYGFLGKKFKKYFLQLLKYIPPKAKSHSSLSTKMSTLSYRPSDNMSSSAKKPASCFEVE
# pIC50 = -log10(concentration in molar units)

*Q* Need pIC50, item CCc1cn2c(C(OC(=O)NC3CCCCC3)c3ccc(-c4ccccc4C(=O)O)cc3)ccc(C)c2n1 (racemic) [Substance C]
*A* 6.64

*Q* Queued: CCc1cn2c(C(O)c3ccc(-c4ccccc4C(=O)O)cc3)ccc(C)c2n1 (racemic) [Substance A]
*A* 7.34
